Listed compounds paired with reported Percent Effect
System: Leishmania donovani
PROTOCOL_DESCRIPTION: Leishmania intramacrophage assay
Type: functional, organism-based
Parameters: scale not given: in the data most compounds retested in dose-response had high values
RUN_PARAMETERS: 30.3 µM; […]
Hit rate of the full screen: of about 69,000 compounds, about 1,000 (1.4%) showed an effect of 50% or more. Many of the other results were omitted from the sample, so strong results are more common in it than they were.

- COMPOUND: "CC(Cc1cccc(F)c1)C(=O)NS(=O)(=O)c1ccc(F)cc1 (configuration not stated)"
  Percent Effect: "5.076%"
- COMPOUND: "CCN(CC)C(=O)CS(=O)(=O)c1cc(OC)c(OC)cc1C"
  Percent Effect: "-79.93%"
- COMPOUND: "Cn1ccnc1-c1noc(NCc2ccc(Cl)cc2)n1"
  Percent Effect: "-1.294%"
- COMPOUND: "COCCN1C[C@@H]2[C@@H](OC)CCN(Cc3ccco3)[C@@H]2C1.O=C(O)C(F)(F)F.O=C(O)C(F)(F)F"
  Percent Effect: "5.523%"
- COMPOUND: "CCOc1ccc(C(=O)N(C)Cc2nccn2CC(F)(F)F)cc1"
  Percent Effect: "3.454%"
- COMPOUND: "CCn1ccnc1CN(C)c1nc(-c2ccc(Cl)cc2)nc2c1CNC2"
  Percent Effect: "20.89%"
- COMPOUND: "CCOCCN1CCN(c2ccc(C#N)cn2)CC1CC (configuration not stated)"
  Percent Effect: "26.65%"
- COMPOUND: "Cc1nccn1CCN(C)c1nc(-c2cccnc2)nc2c1CCNC2"
  Percent Effect: "20.05%"
- COMPOUND: "COc1cc(Oc2ccc(C#N)cn2)ccc1CN1CCCC1"
  Percent Effect: "2.326%"
- COMPOUND: "Cc1nnc(N2CCO[C@H]3[C@@H](OCc4ccccn4)CC[C@@H]32)s1.O=C(O)C(F)(F)F.O=C(O)C(F)(F)F"
  Percent Effect: "-5.183%"
- COMPOUND: "CSCCC(Nc1nc(C)cc(C)n1)C(=O)NC(C)(C)CO (configuration not stated)"
  Percent Effect: "-4.466%"
- COMPOUND: "Fc1ccc(C(CNc2ccncn2)N2CCCC2)cc1 (configuration not stated)"
  Percent Effect: "64.07%"
- COMPOUND: "Cc1ccc(C(=O)OC(C)Cn2cccn2)c(=O)[nH]1 (configuration not stated)"
  Percent Effect: "9.557%"
- COMPOUND: "OC(CNCCc1nnc2ccccn12)c1ccc2c(c1)OCO2 (configuration not stated)"
  Percent Effect: "14.08%"
- COMPOUND: "Cc1nnc(NC(=O)C2CSCN2C(=O)C2CCCC2)s1 (configuration not stated)"
  Percent Effect: "-31.76%"
- COMPOUND: "Fc1ccc(C(CNc2ccncn2)N2CCCCC2)cc1 (configuration not stated)"
  Percent Effect: "33.33%"
- COMPOUND: "Fc1ccccc1C(CNc1ccncn1)N1CCCC1 (configuration not stated)"
  Percent Effect: "13.69%"
- COMPOUND: "CC(C)CN1CC(O)CN(S(=O)(=O)c2ccccc2)CC1=O (configuration not stated)"
  Percent Effect: "-1.941%"
- COMPOUND: "CC(C)(C)c1ccc(C(=O)C2CCCN(C(=O)CNS(C)(=O)=O)C2)cc1 (configuration not stated)"
  Percent Effect: "1.067%"
- COMPOUND: "CCC(=O)c1ccc(Br)cc1NN1c2cc(Br)ccc2C(=O)C1(C)OC (configuration not stated)"
  Percent Effect: "24.9%"
- COMPOUND: "CCC(=O)c1ccccc1NN1c2ccccc2C(=O)C1(C)OC (configuration not stated)"
  Percent Effect: "62.96%"
- COMPOUND: "COCCN1C[C@@H]2[C@@H](OC)CCN(Cc3ccc(C)o3)[C@@H]2C1.O=C(O)C(F)(F)F.O=C(O)C(F)(F)F"
  Percent Effect: "53%"
